Can you tell me IC50 for the items I'm about to list?
# Experimental system: wild type FGFR-4 (Homo sapiens, UniProt P22455)
# Sequence (P22455 22-802): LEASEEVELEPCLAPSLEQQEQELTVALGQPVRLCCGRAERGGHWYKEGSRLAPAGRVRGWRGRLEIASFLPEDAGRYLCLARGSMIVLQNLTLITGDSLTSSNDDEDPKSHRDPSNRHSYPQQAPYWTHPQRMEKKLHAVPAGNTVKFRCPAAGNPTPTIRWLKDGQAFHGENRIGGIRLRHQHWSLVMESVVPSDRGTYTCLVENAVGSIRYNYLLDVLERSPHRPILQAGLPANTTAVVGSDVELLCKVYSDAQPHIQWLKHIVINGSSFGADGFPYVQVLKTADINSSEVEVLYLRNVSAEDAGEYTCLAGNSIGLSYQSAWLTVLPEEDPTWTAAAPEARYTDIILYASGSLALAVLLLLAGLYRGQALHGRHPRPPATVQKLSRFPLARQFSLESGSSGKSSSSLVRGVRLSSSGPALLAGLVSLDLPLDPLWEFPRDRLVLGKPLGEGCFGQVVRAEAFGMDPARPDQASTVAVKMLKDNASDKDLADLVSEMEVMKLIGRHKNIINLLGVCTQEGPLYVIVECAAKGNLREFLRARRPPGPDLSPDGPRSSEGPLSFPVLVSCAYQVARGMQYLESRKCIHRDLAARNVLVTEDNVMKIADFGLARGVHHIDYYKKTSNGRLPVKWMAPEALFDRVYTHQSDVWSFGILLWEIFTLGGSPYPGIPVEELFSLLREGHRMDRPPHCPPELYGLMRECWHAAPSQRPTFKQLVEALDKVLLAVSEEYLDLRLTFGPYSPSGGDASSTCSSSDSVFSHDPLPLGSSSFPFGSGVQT

Molecule	IC50
C#CC(=O)N[C@H]1CCC[C@H]1Nc1ncc2cc(-c3c(Cl)c(OC)cc(OC)c3Cl)ccc2n1 [Compound 20]	< 10 nM
C=CC(=O)N[C@H]1CCN(C(C)=O)C[C@H]1Nc1ncc2cc(-c3c(Cl)c(OC)cc(OC)c3Cl)ccc2n1 [Compound 70]	100 to 1000 nM
C=CC(=O)N[C@@H]1CCNC[C@@H]1Nc1ncc2cc(-c3c(Cl)c(OC)cc(OC)c3Cl)ccc2n1 [Compound 39]	> 1000 nM
C=CC(=O)N[C@H]1CN(C(=O)CN2CCCC2)C[C@H]1Nc1ncc2cc(-c3c(Cl)c(OC)cc(OC)c3Cl)ccc2n1 [Compound 91]	< 10 nM
C=CC(=O)N[C@H]1CCC[C@H]1Nc1ncc2cc(-c3cc(C(=O)NC4CC4)ccc3C)ccc2n1 [Compound 9]	100 to 1000 nM

Return reported IC50 values for all items listed beneath this line.
1. C=CC(=O)N[C@H]1CCC[C@H]1Nc1ncc2cc(-c3c(Cl)c(OC)cc(OC)c3Cl)c(=O)n(CC)c2n1 [Compound 62]
2. C=CC(=O)N[C@@H]1CCN(C(C)=O)C[C@@H]1Nc1ncc2cc(-c3c(Cl)c(OC)cc(OC)c3Cl)ccc2n1 [Compound 69]

1. < 10 nM
2. 100 to 1000 nM
